tested on: Thalamus; assay: Drug uptake in anesthetized cynomolgus monkey brain thalamus after 125 mins postinjection; type: ADME, organism-based, Macaca fascicularis; design: unit not given here; details: in vivo
Quick reference for Drug uptake among some molecules
measured-parameter: Drug uptake

{"molecule": "O=C(OCCC[18F])C1C2CCC(CC1c1cccc(/C=C\\Br)c1)N2 (stereo not given)", "experimental-result": 4.71}
{"molecule": "O=C(OCC[18F])C1C2CCC(CC1c1ccc(/C=C\\I)cc1)N2 (stereo not given)", "experimental-result": 4.04}
{"molecule": "O=C(OCC[18F])C1C2CCC(CC1c1cccc(/C=C\\I)c1)N2 (stereo not given)", "experimental-result": 3.41}
{"molecule": "O=C(OCC[18F])C1C2CCC(CC1c1cccc(/C=C\\Br)c1)N2 (stereo not given)", "experimental-result": 4.15}
{"molecule": "O=C(OCCC[18F])C1C2CCC(CC1c1cccc(/C=C\\I)c1)N2 (stereo not given)", "experimental-result": 4.15}

The measured values listed here are drawn from ChEMBL document CHEMBL1151757.
